- Target or test system: CDK2/CyclinE (Homo sapiens (Human))
- Test summary: CDK2/CyclinE kinase assay (Nanosyn, Caliper microfluidic)
- Format: biochemical
- Run parameters: Table 2
Returns: string. Value is true (1) if measured Fold Selectivity (CDK2/CycE/CDK4) is below 800, and false (0) if it is greater than or equal to it.

[Q] Quick check: does CCN(CC)C1CCN(C(=O)c2ccc(Nc3ncc4cc5n(c4n3)C3(CCCCC3)CNC5=O)nc2)C1 (centres unmarked) [JJ] have Fold Selectivity (CDK2/CycE/CDK4) under 800?
[A] true (1)

[Q] Follow-up entry: O=C1NCC2(CCCC2)n2c1cc1cnc(Nc3ccc(N4CCNCC4)cn3)nc12 [QQQ]
[A] false (0)

[Q] Follow-up entry: CC(C)(C)CCN1CCN(c2ccc(Nc3ncc4cc5n(c4n3)C3(CCCC3)CNC5=O)nc2)CC1(C)C [CCC]
[A] false (0)

[Q] Follow-up entry: O=C1NCC2(CCCC2)n2c1cc1cnc(Nc3ccc(C(=O)N4CCN(CC5CC5)CC4)cn3)nc12 [OOO]
[A] true (1)

[Q] Follow-up entry: CC(C)C[C@@H]1CNC(=O)c2cc3cnc(Nc4ccc(N5CCN(C)CC5)cn4)nc3n21 [XXX]
[A] true (1)

[Q] Follow-up entry: O=C1NCC2(CCCCC2)n2c1cc1cnc(Nc3ccc(N4CCN(C5CCC5)CC4)cn3)nc12 [F]
[A] true (1)

[Q] Follow-up entry: CCOCCN1CCN(c2ccc(Nc3ncc4cc5n(c4n3)C3(CCCC3)CNC5=O)nc2)CC1 [MMM]
[A] true (1)
